Numbers sourced from ChEMBL document CHEMBL4270550.

Hi there, I'd appreciate the recorded Activity for every entry that follows.
System: U-87 MG
Assay: Antiproliferative activity against human U87 cells at 10 uM after 48 hrs by MTT assay relative to control
Type: functional, U-87MG ATCC
Numbers only, in %.

The following molecules have reported results that may help.
sample_smiles=Cc1ccc(-n2cc(Cn3cnc4c(cnn4-c4ccccc4)c3=O)nn2)cc1 target="U-87 MG" endpoint_unit=% result_value=41.62
sample_smiles=Cc1cccc(-n2cc(Cn3cnc4c(cnn4-c4ccccc4)c3=O)nn2)c1C target="U-87 MG" endpoint_unit=% result_value=40.6
sample_smiles=O=c1c2cnn(-c3ccc(Cl)cc3)c2ncn1Cc1cn(-c2ccccc2)nn1 target="U-87 MG" endpoint_unit=% result_value=40.98

Go through the items and report each one's Activity.
1. Cc1ccccc1-n1cc(Cn2cnc3c(cnn3-c3ccccc3)c2=O)nn1
2. COc1ccccc1-n1cc(Cn2cnc3c(cnn3-c3ccccc3)c2=O)nn1
3. COc1ccccc1-n1cc(Cn2cnc3c(cnn3-c3ccc(Cl)cc3)c2=O)nn1
4. O=c1c2cnn(-c3ccc(Cl)cc3)c2ncn1Cc1cn(-c2cccc(Cl)c2)nn1

[reply]
[21.32, 15.7, 32.98, 47.29]

----------
Tested on: U-87 MG
Test: Antiproliferative activity against human U87 cells at 10 uM after 48 hrs by MTT assay relative to control
Assay type: functional, U-87MG ATCC
quantity-kind: Activity

sample_smiles=O=c1c2cnn(-c3ccccc3)c2ncn1Cc1cn(-c2ccccc2)nn1 quantity_kind=Activity result_value=52.34%
sample_smiles=O=c1c2cnn(-c3ccccc3)c2ncn1Cc1cn(-c2ccccc2F)nn1 quantity_kind=Activity result_value=46.35%
sample_smiles=O=c1c2cnn(-c3ccccc3)c2ncn1Cc1cn(-c2cccc(Cl)c2)nn1 quantity_kind=Activity result_value=47.69%

Go through the items and report each one's Activity.
1. Cc1cccc(-n2cc(Cn3cnc4c(cnn4-c4ccc(Cl)cc4)c3=O)nn2)c1C
2. O=c1c2cnn(-c3ccc(Cl)cc3)c2ncn1Cc1cn(-c2ccccc2F)nn1

[reply]
1: 54.42%; 2: 21.31%
